- protocolNotes: Oral bioavailability in Sprague-Dawley rat at 30 mg/kg measured for 24 hrs by LC-MS analysis
- Format: ADME, organism-based
- assayConditions: in vivo
readoutType: bioavailability (%)
Reply with just the number (in %).

Give reported bioavailability value for CC(C)[C@@H]1NC(=O)CCCCCCCCCCCC(=O)N[C@@H](Cc2ccccc2)COC1=O
0.09

* * *

- protocolNotes: Half life in Sprague-Dawley rat at 1 mg/kg, iv measured for 24 hrs by LC-MS analysis
- Assay type: ADME, organism-based
- assayConditions: in vivo
readoutType: half-life (h)
Reply with just the number (in h).

Give reported half-life value for CC(C)[C@@H]1NC(=O)CCCCCCCCCCCC(=O)N[C@@H](Cc2ccccc2)COC1=O
1.09
